B1: library; a variant is named by its letters at N, in order (parent)
chain: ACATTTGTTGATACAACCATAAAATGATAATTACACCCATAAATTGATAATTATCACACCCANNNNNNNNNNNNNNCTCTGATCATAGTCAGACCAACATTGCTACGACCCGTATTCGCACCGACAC

# Variants of: B1
# Procedure Summary: relative integration efficiency (T-LR orientation) vs wild-type transposon end (log2 (normalized fold change)); transposon end mutated: right end (5 bp flank + 75 bp right end); higher = more efficient transposition
# Condition Info: with VchCAST RNA-guided transposition machinery (E. coli BL21(DE3) host, lacZ target)
The following variants are shown together with reported relative integration efficiency (log2) values.

| Variant Description | relative integration efficiency (log2) |
| --- | --- |
| TAATATGATATTGC | 0.438 |
| ATTTAACTATAACG C55A | 2.34 |
| ATTTAACTATAACG A15C | 2.73 |
| ATTTAACTATAACG T48G | 1.85 |
| TAAATTGATATTGC A62G | 0.97 |
| TAAAGGTCTATTGC | 2.17 |
| TAAATTGATATTGC A47T | -0.552 |
| ATTTAACTATAACG T20A | 2.04 |
| TAAATTGATATTGC A58G | 1.32 |
| TAAATTGATATTGC A33T | -0.243 |
| ATTTAACTATAACG A16T | 2.59 |
| TATTAAGATATTGC | 1.66 |
| TAAATTGATATTGC T32C | -0.169 |
| TAAATTGATATTGC T48A | 0.629 |
| TAAATTGAGCTTGC | 1.51 |
| ATTTAACTATAACG A33G | 2.42 |
| TAAATTGATCGTGC | 0.973 |
| TAAATTGATATGGC | 0.317 |
| ATTTAACTATAACG T25G | 1.85 |
| TAAATTGCTATTGC | 0.841 |
| TAAATTGATATTGC A16T | -0.311 |
| TAAATTGATATTGC T5C | -0.488 |
